Recorded values, source patent US20220289816A1.

# experimental_system: HLA-B*07 (Homo sapiens, UniProt P01889)
# experiment_summary: MHC binding assay (UV-ligand exchange, ELISA of stabilized MHC complexes)
# measurement_context: peptide exchange yield on HLA-B*07, UV-ligand exchange
property: Peptide exchange

Sample records with Peptide exchange:
                                  substance                      experimental_system          property              result
0  24 (VPRPTSTVGLFL; listed as Homo sapiens) [compound 24]  HLA-B*07 (Homo sapiens, UniProt P01889)  Peptide exchange  ++++ (>75% = ++++)
1  249 (SPRSGVLL; listed as Homo sapiens) [compound 249]  HLA-B*07 (Homo sapiens, UniProt P01889)  Peptide exchange     +++ (>50 = +++)
2  157 (RPVTGSVC; listed as Homo sapiens) [compound 157]  HLA-B*07 (Homo sapiens, UniProt P01889)  Peptide exchange  ++++ (>75% = ++++)
3  270 (SPRGTTSTL; listed as Homo sapiens) [compound 270]  HLA-B*07 (Homo sapiens, UniProt P01889)  Peptide exchange     +++ (>50 = +++)
4  43 (APTPRPKVL; listed as Homo sapiens) [compound 43]  HLA-B*07 (Homo sapiens, UniProt P01889)  Peptide exchange  ++++ (>75% = ++++)

Exam item: Endpoint output: Peptide exchange of 136 (QPDHAGIFRVF; listed as Homo sapiens) [compound 136] . Value?
Marked response: ++++ (>75% = ++++)

* * *

# experimental_system: HLA-B*07 (Homo sapiens, UniProt P01889)
# experiment_summary: MHC binding assay (UV-ligand exchange, ELISA of stabilized MHC complexes)
# measurement_context: peptide exchange yield on HLA-B*07, UV-ligand exchange
property: Peptide exchange

Sample records with Peptide exchange:
>>> print(df.to_string())
                                  substance                      experimental_system          property              result
0  346 (IPMPRITWL; listed as Homo sapiens) [compound 346]  HLA-B*07 (Homo sapiens, UniProt P01889)  Peptide exchange  ++++ (>75% = ++++)
1  184 (KIIASGNHL; listed as Homo sapiens) [compound 184]  HLA-B*07 (Homo sapiens, UniProt P01889)  Peptide exchange      ++ (>20% = ++)
2  25 (RPQGAVGGL; listed as Homo sapiens) [compound 25]  HLA-B*07 (Homo sapiens, UniProt P01889)  Peptide exchange     +++ (>50 = +++)
3  299 (SPFSGGPVSF; listed as Homo sapiens) [compound 299]  HLA-B*07 (Homo sapiens, UniProt P01889)  Peptide exchange  ++++ (>75% = ++++)
4  62 (KPQSTISGL; listed as Homo sapiens) [compound 62]  HLA-B*07 (Homo sapiens, UniProt P01889)  Peptide exchange     +++ (>50 = +++)
5  366 (SPTLRQLDL; listed as Homo sapiens) [compound 366]  HLA-B*07 (Homo sapiens, UniProt P01889)  Peptide exchange  ++++ (>75% = ++++)

Here is the next item to consider.
Exam item: Endpoint output: Peptide exchange of 484 (LPASAEPKGTM; listed as Homo sapiens) [compound 484] . Value?
Marked response: ++ (>20% = ++)
